biological target: IP6K3; experiment: pooled miR-30 sensor sort-seq; sequence = guide strand; conditions: shRNA
Some sequences, each annotated with its measured sensor-assay potency score (higher = more potent).

Some solved cases for reference:
# sensor-assay potency score (higher = more potent) lookup, item TTCATAGAACCTCTGCTCCCGG
-0.506

# sensor-assay potency score (higher = more potent) lookup, item TACACTTGTCCACCAGTCTTGT
-0.242

# sensor-assay potency score (higher = more potent) lookup, item TTTTCCAGCAACAAGAACCGAT
-0.15

# sensor-assay potency score (higher = more potent) lookup, item TAGATGACAAGGAGAGAGCTGG
-0.213

Next:
# sensor-assay potency score (higher = more potent) lookup, item TGACACTACATTTTCCAGCAAC
-1.2

# sensor-assay potency score (higher = more potent) lookup, item TTGCAGAGAAAGTACTTCTTAT
-0.832

The origin of these recorded values is the OligoGym collection.
